- Run description: Metabolic stability in Homo sapiens (human) serum at 3 hr
- Format: ADME
- Assay conditions: read-out: Stability
Measured property: remaining at 3 h
Returns: string containing the number followed by the unit.

Q) For O=C(O[C@@H]1Cc2c(cc(O)c([131I])c2O)O[C@@H]1c1cc(O)c(O)c(O)c1)c1cc(O)c(O)c(O)c1 [[131I]-EPIGALLOCATECHIN GALLATE] , write its remaining at 3 h.
A) 86%

----------
- Run description: Metabolic stability in Homo sapiens (human) serum at 4 hr
- Assay type: ADME
- Assay conditions: read-out: Stability
Measured property: remaining at 4 h (%)
Report the figure in % without appending any unit label.

Q) For O=C(O[C@@H]1Cc2c(cc(O)c([131I])c2O)O[C@@H]1c1cc(O)c(O)c(O)c1)c1cc(O)c(O)c(O)c1 [[131I]-EPIGALLOCATECHIN GALLATE] , write its remaining at 4 h.
A) 84
